Measured values drawn from the PETadex activity labels (doi:10.1038/s41586-022-04599-z) for this set.

# Substrate: PET
# experimental_details: Proxy for plastic degradation [Released monomer concentration (HPLC/LC-MS) (MHET+TPA)]
# stated_conditions: pH 7.5; 30 °C; part of the chain shown
quantity: Proxy for plastic degradation (mM)
API: value field is a number in mM; no unit string.

Proxy for plastic degradation recorded for this protein, unnamed (protein) QTNPYARGPNPTAASLEASAGPFTVRSFTVSRPSGYGAGTVYYPTNAGGTVGAIAIVPGYTARQSSIKWWGPRLASHGFVVITIDTNSTLDQPESRSSQQMAALRQVASLNGTSSSPIYGKVDTARMGVMGWSMGGGGSLISAANNPSLKAAAPQAPWHSSTNFSSVTVPTLIFACENDSIAPVNSSALPIYDSMSQNAKQFLEIKGGSHSCANSGNSNQALIGKKGVAWMKRFMDNDTRYSTFACENPNSTAVSDFRTANCSLEHHHHHH , is 2.9

Proxy for plastic degradation recorded for this protein, unnamed (protein) QTNPYARGPNPTAASLEASAGPFTVRSFTVSRPSGYGAGTVYYPTNAGGTVGAIAIVPGYTARQSSIKWWGPRLASHGFVVITIDTNSTLDQPESRSSQQMAALRQVASLNGTSSSPIYGKVDTARMGVMGWSMGGGGSLISAANNPSLKAAAPQAPWHSSTNFSSVTVPTLIFACENDSIAPVNSSALPIYDSMSRNAKQFLEINGGSHSCANSGNSNQALIGKKGVAWMKRFMDNDTRYSTFACENPNSTAVSDFRTANCSLEHHHHHH , is 2.3

Proxy for plastic degradation recorded for this protein, unnamed (protein) QTNPYARGPNPTAASLEASAGPFTVRSFTVSRPSGYGAGTVYYPTNAGGTVGAIAIVPGYTARQSSIKWWGPRLASHGFVVITIDTNSTFDYPSSRSSQQMAALRQVASLNGDSSSPIYGKVDTARMGVMGHSMGGGASLRSAANNPSLKAAIPQAPWDSQTNFSSVTVPTLIFACENDSIAPVNSHALPIYDSMSRNAKQFLEINGGSHSCANSGNSNQALIGKKGVAWMKRFMDNDTRYSTFACENPNSTAVSDFRTANCSLEHHHHHH , is 0.2

New cases:
Proxy for plastic degradation recorded for this protein, unnamed (protein) QTNPYARGPNPTAASLEASAGPFTVRSFTVSRPSGYGAGTVYYPTNAGGTVGAIAIVPGYTARQSSIKWWGPRLASHGFVVITIDTNSTLDQPSSRSSQQMAALRQVASLNGTSSSPIYGKVDTARMGVMGWSMGGGGSLISAANNPSLKAAAPQAPWDSSTNFSSVTVPTLIFACENDSIAPVNSSALPIYDSMSRNAKQFLEINGGSHSCANSGNSNQALIGKKGVAWMKRFMDNDTRYSTFACENPNSTRVSDFRTANCSLEHHHHHH , is 0.25
